Assay info: NCI Yeast Anticancer Drug Screen. Data for the bub3 strain (AID 167)
Condition: S. cerevisiae bub3 mutant strain, at 50.0 µM (retest, dose inferred, filed as 5.0), stronger effect = higher value
About 79,000 compounds went through this panel and 15% of them were active in at least one assay; those are over-represented in the sample as a whole.
Measured parameter: growth inhibition (%)
Please respond with the number in % and leave the unit unwritten.

Below are worked cases with known answers.
Cn1c2ccccc2c(=O)c2ccccc21; 1
Nc1cc(F)c2c(c1)Cc1ccccc1-2; 92
OCC1OC(Sc2ncc[nH]2)C(O)C(O)C1O (stereo unspecified); 0
CC(O)CN1CCN(CC(C)O)CC1.[I][Pt+2][I] (stereo unspecified); 2
CN(C)CCNc1ccc(CO)c2oc3ccc(O)cc3c(=O)c12; 66

Please fill in: growth inhibition reported for CCOC(=O)c1c(CN2CCNCC2)nc2ccc(Cl)cc2c1-c1ccccc1 = 29

###

We begin with a simple list: items and their reported growth inhibition.
Assay info: NCI Yeast Anticancer Drug Screen. Data for the wt2 strain (AID 169);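 further: 0% = growth of vehicle-treated yeast cultures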
Condition: S. cerevisiae wt2 strain growth inhibition; at 3.7 µM; stronger effect = higher value
About 79,000 compounds went through this panel and 15% of them were active in at least one assay; those are over-represented in the sample as a whole.
Give the value, in units of %, as a plain number.

Worked examples follow.
Cc1c(C)c(CCl)c(C)c(C)c1CCl; 25
CCCCCCCCCCCCN; -21
CCSC1=C(C)C(=O)c2ccccc2C1=O; 11
Cc1nc2cc(Cl)ccc2n1-c1ccccc1; 11
C[n+]1c2cc(N)ccc2cc2ccc(N)cc21; -12

Short answer for Cc1ccc(S(=O)(=O)NC2CCCCCCC2)cc1 : growth inhibition was -17

Note to self: growth inhibition recorded for Nc1cc2ccccc2cc1Br was -17

###

Assay info: NCI Yeast Anticancer Drug Screen. Data for the mec2-1 strain (AID 157)
Condition: S. cerevisiae mec2-1 strain, at 50.0 µM, stronger effect = higher value
Protocol: Growth inhibition of yeast strains with defined genetic alterations is measured as a screen for potential anti-cancer activity. Selected strains with alterations in DNA damage repair or cell cycle control were exposed to compounds and growth inhibition was measured relative to vehicle treated controls. The strain used in this assay is mec2-1
About 79,000 compounds went through this panel and 15% of them were active in at least one assay; those are over-represented in the sample as a whole.
Would you mind labelling by growth inhibition? At or over 60% is 1, under is 0.

Take a look at these entries with their results.
O=Cc1cc([N+](=O)[O-])ccc1O.[Eu]; 1
CC[N](CC)[Ge]([CH2]C)[CH2]C.C[CH2][Ge]([CH2]C)[CH2]C; 1
CCCCCCCCCCCCc1ccc(S(=O)(=O)O)cc1.[Cu+2]; 1
COC(O)C(=O)c1c2c(cc3c1CCC3)CCCC2 (centres undefined); 1

Prompt: Quick check, growth inhibition >= 60%? O=S(=O)(O)c1ccc2cc(N=Nc3c(O)ccc4ccccc34)ccc2c1
Response: 0

Prompt: Given the entry CCn1c(-c2c(Cl)cc(O)cc2Cl)cc2c(Cl)cc(O)cc21 , answer whether its growth inhibition meets or surpasses 60%.
Response: 1

Prompt: Please indicate if the recorded growth inhibition for CC(=O)Nc1c(Cl)c(Cl)c2c(c1Cl)Cc1cc(Cl)ccc1-2 meets or exceeds 60%.
Response: 1

Prompt: Textbook exercise: given the entry COc1cc2c3c(c1)SCCC(=O)N3CCN2 , state whether its growth inhibition is greater than or equal to 60%.
Response: 1

Prompt: API: above_or_equal(metric=growth inhibition, cutoff=60%) for item ClCCCN(CCCCl)c1ccc(C=Nc2cccc(Cl)c2)cc1
Response: 0

###

Assay info: NCI Yeast Anticancer Drug Screen. Data for the sgs1 mgt1 strain (AID 161);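 further: 0% = growth of cultures given vehicle only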
Condition: S. cerevisiae sgs1 mgt1 strain, at 5.0 µM (retest, dose inferred, filed as 0.5), stronger effect = higher value
About 79,000 compounds went through this panel and 15% of them were active in at least one assay; those are over-represented in the sample as a whole.
Here, each record is paired with measured growth inhibition data.
Lab book: enter the figure in %, no units written.

Consider the worked cases shown below.
CCCCCC(C)c1ccc(O)c(C)c1 (stereo not given); -10
CC[N](CC)[Ge]([CH2]C)[CH2]C.C[CH2][Ge]([CH2]C)[CH2]C; 32
CC1=C(C(=O)Nc2c(C)cccc2C)C(c2ccc3c(c2)OCO3)C(C(=O)Nc2c(C)cccc2C)=C(C)N1; 4
Oc1cc2c(cc1C(c1ccc3c(c1)OCO3)N1CCN(C(c3ccc4c(c3)OCO4)c3cc4c(cc3O)OCO4)CC1)OCO2 (stereo not given); 8
OC1CN(Cc2ccccc2)C[C@@H]1O (stereo not given in full); 10
COc1ccc2nc3cc(Cl)ccc3c(NCCCNCc3cc(OC)c(OC)c(OC)c3)c2c1; 6

# growth inhibition (compound: CN(C)CCNC(=O)Cc1cc(O)c2c(c1O)C(=O)c1ccccc1C2=O ) is 4

So for N#CC(=C1C=CC(=NOC(=O)Nc2cccc3ccccc23)C=C1)c1ccccc1 , the logged growth inhibition turned out to be 51

What the record says about CCN1CCC(O)(/C=C/c2ccc(C)cc2)C(C(=O)/C=C/c2ccc(C)cc2)C1 (stereo not given) : growth inhibition is -29

Measured growth inhibition of O=C1c2cccc(O)c2C(=O)c2c(O)cccc21 : 21

###

Assay info: NCI Yeast Anticancer Drug Screen. Data for the bub3 strain (AID 167)
Condition: S. cerevisiae bub3 mutant strain, at 5.0 µM (retest, dose inferred, filed as 0.5), stronger effect = higher value
The panel holds about 79,000 compounds, 15% with a hit somewhere; the sample as a whole holds those more often.
Measured parameter: growth inhibition (%)
Provide only the numeric value, understood in %.

Observe how each entry below is paired with its result.
O=C(Nc1ccc(Cl)cc1)c1ccccc1O; 8
CCCC(C)NCCOC(=O)C(c1ccccc1)C1CCCCC1 (stereo unspecified); 0

The reported growth inhibition of the compound OCC1OC(n2cnc3c(=S)nc[nH]c32)C(O)C1O (stereo unspecified) was 0

Entry under test: CCOC(=O)Nc1c(C)cc(C)c(Br)c1C . Its growth inhibition was -5

###

Assay info: NCI Yeast Anticancer Drug Screen. Data for the bub3 strain (AID 167)
Condition: S. cerevisiae bub3 mutant strain, at 50.0 µM (retest, dose inferred, filed as 5.0), stronger effect = higher value
The panel holds about 79,000 compounds, 15% with a hit somewhere; the sample as a whole holds those more often.
Items are presented alongside their recorded growth inhibition.
Provide only the numeric value, understood in %.

Solved entries (count: 10):
COc1ccc(-c2c(C#N)c(-c3ccc(C)cc3)n(NS(=O)(=O)c3ccccc3)c(=O)c2C#N)cc1; 56
CC1(C)C(c2ccccc2)=Nc2ccccc21; 94
CCCCCCCCCCCCCCCC(=O)NCC[N+](C)(C)C; 100
CCN(CCO)CCNc1ccc(C)c2sc3ccccc3c(=O)c12; 98
COc1cc(OC)c(OC)cc1/C=C\c1ccnc2ccccc12; 79
O=C1C(Cl)=C(N2CCN(C3=C(Cl)C(=O)c4ccccc4C3=O)CC2)C(=O)c2ccccc21; 98
O=C(O)c1ccc(C(c2ccccc2)c2ccccc2)cc1; 99
CCOC(=O)C(CN)(c1ccccc1)c1ccccc1; 0
Nc1nc(N)c2nc3c4ccccc4c4ccccc4c3nc2n1; 38
COC(O)C(=O)c1c2c(cc3c1CCC3)CCCC2 (stereo unspecified); 100

# growth inhibition of Oc1c(Cl)c(Cl)c(Cl)c2ccccc12 = 93

###

// values below are reported growth inhibition
Assay info: NCI Yeast Anticancer Drug Screen. Data for the rad50 strain (AID 155);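 further: 0% = growth of vehicle-only cultures of the same strain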
Condition: S. cerevisiae rad50 strain growth inhibition; at 50.0 µM; stronger effect = higher value
The panel holds about 79,000 compounds, 15% with a hit somewhere; the sample as a whole holds those more often.
Reply with just the number (in %).

For orientation, consider the following solved cases.
CC1OC(OC2CC(O)(C(=O)CO)Cc3c(O)c4c(c(O)c32)C(=O)c2ccccc2C4=O)CC(N)C1O (stereo not given); 87.8
O=C(O)CSCc1ccc(Cl)cc1; 3.7
CCCCCCCCCCCCCCCC[N+](C)(C)Cc1cnc[nH]1; 90.3
Cc1nnc(S(=O)(=O)c2ccc(N=Nc3c(N)nc(N)nc3N)cc2)s1; -5.45
CCOc1ccc(NC(=O)C(=O)NO)cc1; 83
CCOC(=O)C(Cc1c[nH]c2cc([N+](=O)[O-])ccc12)NS(=O)(=O)c1ccc2ccccc2c1 (stereo not given); 95.3

GET /value?item= COc1cccc2c1C(=O)c1c(O)c3c(c(O)c1C2=O)C[C@@](O)(C(C)=O)C[C@@H]3OC1CC(O)C(O)C(C)O1 (stereo not given in full) &field=growth inhibition returns 84.7

The value of growth inhibition measured for the molecule O=C1OC(c2ccc(O)cc2)(c2ccc(O)cc2)c2cccc3cccc1c23 turned out to be 99

What the record says about Fc1cccc(NC(=S)SCc2ccc(Cl)c(Cl)c2)c1 : growth inhibition is 98.2

Kindly note the recorded growth inhibition for Cc1ccc(S(=O)(=O)N/N=C2/C(=O)c3cccc4cccc2c34)cc1 , which is 64.5

Input O=C1OC(c2ccccc2)C(c2ccccc2)=C1c1ccccc1 (stereo not given) . Output growth inhibition: -6

Entry COc1cccc2c1C(=O)c1c(O)c3c(c(O)c1C2=O)C[C@@](O)(C(C)=O)C[C@@H]3OC1CC(N(C)C)C(O)C(C)O1 (stereo not given in full) , growth inhibition reported as 86.5

For reference, reported growth inhibition for O=S(=O)(O)c1ccc(NN(c2c(O)ccc3ccccc23)S(=O)(=O)O)cc1 stands at 18.2

Data point: CCCCCCCCOC(=O)c1cc(O)c(O)c(O)c1 ; growth inhibition = 89.2

For CC1=C(C(=O)Nc2c(C)cccc2C)C(c2ccc3c(c2)OCO3)C(C(=O)Nc2c(C)cccc2C)=C(C)N1 the molecule record lists growth inhibition as 81.9

Reported growth inhibition of Cc1n(Cc2ccccc2)c2c([n+]1C)C(=O)c1ccccc1C2=O : 86.2

// field: growth inhibition; key: CC[C@](O)(CC(=O)O[C@H]1C(=O)O[C@@H]2C[C@H]3C(C)=CC(=O)[C@@H](O)[C@]3(C)[C@H]3[C@@]4(O)OC[C@]32[C@@H]1[C@@H](C)[C@H]4O)C(C)C ; value = 88.9

Recorded growth inhibition (molecule COc1cc2c3c(c1)SCCC(=O)N3CCN2 ): 71.7

Entry O=C(CCl)Nc1ccc(C(=O)N/N=C/c2ccc(Cl)cc2)cc1 , growth inhibition reported as -8.7

Value of growth inhibition reported for the molecule N#Cc1c(/N=C/c2ccccc2Cl)sc2c1CCC2 is 20.1
